# target_or_test_system: T1, GHRH receptor of human pituitary membranes (human, UniProt Q02643)
# T1 sequence: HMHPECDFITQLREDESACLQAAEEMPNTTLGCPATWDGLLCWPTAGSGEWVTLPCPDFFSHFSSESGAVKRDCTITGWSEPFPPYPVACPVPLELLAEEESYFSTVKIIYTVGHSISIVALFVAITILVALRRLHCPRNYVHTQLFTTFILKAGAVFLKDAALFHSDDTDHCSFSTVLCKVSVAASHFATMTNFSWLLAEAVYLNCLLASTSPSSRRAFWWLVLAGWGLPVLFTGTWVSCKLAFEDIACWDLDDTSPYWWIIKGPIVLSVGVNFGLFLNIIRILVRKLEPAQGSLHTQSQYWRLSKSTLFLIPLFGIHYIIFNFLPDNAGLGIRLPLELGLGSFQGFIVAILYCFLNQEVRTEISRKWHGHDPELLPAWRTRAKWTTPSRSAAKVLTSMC
# assay_info: competition vs 125I-JV-1-42, human pituitary membranes;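 note: pituitaries used were normal human glands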
Non-standard residues stand in square brackets, D forms with d. No end group written: not given here. *: point of attachment. Phe(F5) = N[C@@H](Cc1c(F)c(F)c(F)c(F)c1F)C(=O)O; NMeY = CN[C@@H](Cc1ccc(O)cc1)C(=O)O; Agmatine = N=C(N)NCCCCN*; Nle = CCCC[C@H](N)C(=O)O; Orn = NCCC[C@H](N)C(=O)O; Abu = CC[C@H](N)C(=O)O; GABA = NCCCC(=O)O
measurement_label: pIC50
Answer as the number alone; pIC50 is minus log10 of concentration in mol/L.

Note to self: pIC50 recorded for YADAIFTNSYRKVLGQLSARKLLQDIMSRQ (N-Me-Tyr^1; D-Ala^2; Orn^12; Abu^15; Orn^21; Nle^27; Gab^30 (in place of Gln^30); C-terminal -NH2) [P-25501 [N-Me-Tyr^1, D-Ala^2, Orn^12, Abu^15, Orn^21, Nle^27, Gab^30]hGHRH(1-30)NH2] was 8.97

Note to self: pIC50 recorded for [NMeY][dA]DAIFTQSYR[Orn]VL[Abu]QLSAR[Orn]LLQDI[Nle]D[Agmatine] [P-20361 [N-Me-Tyr^1, D-Ala^2, Gln^8, Orn^12, Abu^15, Orn^21, Nle^27, Asp^28, Agm^29]hGHRH(1-29)NH2] was 9.09

Note to self: pIC50 recorded for [NMeY][dA]DAI[Phe(F5)]TNSYR[Orn]VL[Abu]QLSAR[Orn]LLQDI[Nle]DR-NHMe [P-27404 [N-Me-Tyr^1, D-Ala^2, Fpa5^6, Orn^12, Abu^15, Orn^21, Nle^27, Asp^28]hGHRH(1-29)NH-CH3] was 9.06

Continuing:
Note to self: pIC50 recorded for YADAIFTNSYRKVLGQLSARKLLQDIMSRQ (Dat^1; D-Abu^2; Orn^12; Abu^15; Orn^21; Nle^27; Gab^30 (in place of Gln^30); C-terminal -NH2) [P-25504 [Dat^1, D-Abu^2, Orn^12, Abu^15, Orn^21, Nle^27, Gab^30]hGHRH(1-30)NH2] was 8.84

Note to self: pIC50 recorded for [NMeY][dA]DAIFTTSYR[Orn]VL[Abu]QLSAR[Orn]LLQDI[Nle]DR-NHMe [P-27410 [N-Me-Tyr^1, D-Ala^2, Thr^8, Orn^12, Abu^15, Orn^21, Nle^27, Asp^28]hGHRH(1-29)NH-CH3] was 9.08

Note to self: pIC50 recorded for [NMeY]ADAIFTQSYR[Orn]VL[Abu]QLSAR[Orn]LLQDI[Nle]SRQ-{GABA-NH2} [P-29703 [N-Me-Tyr^1, Gln^8, Orn^12, Abu^15, Orn^21, Nle^27, Gln-Gab^30]hGHRH(1-30)NH2] was 8.91
